- TARGET_UNDER_TEST: human GR (Homo sapiens)
- Construct: naturally expresses the human GR; endogenous in cells
- Sequence (P04150 whole entry): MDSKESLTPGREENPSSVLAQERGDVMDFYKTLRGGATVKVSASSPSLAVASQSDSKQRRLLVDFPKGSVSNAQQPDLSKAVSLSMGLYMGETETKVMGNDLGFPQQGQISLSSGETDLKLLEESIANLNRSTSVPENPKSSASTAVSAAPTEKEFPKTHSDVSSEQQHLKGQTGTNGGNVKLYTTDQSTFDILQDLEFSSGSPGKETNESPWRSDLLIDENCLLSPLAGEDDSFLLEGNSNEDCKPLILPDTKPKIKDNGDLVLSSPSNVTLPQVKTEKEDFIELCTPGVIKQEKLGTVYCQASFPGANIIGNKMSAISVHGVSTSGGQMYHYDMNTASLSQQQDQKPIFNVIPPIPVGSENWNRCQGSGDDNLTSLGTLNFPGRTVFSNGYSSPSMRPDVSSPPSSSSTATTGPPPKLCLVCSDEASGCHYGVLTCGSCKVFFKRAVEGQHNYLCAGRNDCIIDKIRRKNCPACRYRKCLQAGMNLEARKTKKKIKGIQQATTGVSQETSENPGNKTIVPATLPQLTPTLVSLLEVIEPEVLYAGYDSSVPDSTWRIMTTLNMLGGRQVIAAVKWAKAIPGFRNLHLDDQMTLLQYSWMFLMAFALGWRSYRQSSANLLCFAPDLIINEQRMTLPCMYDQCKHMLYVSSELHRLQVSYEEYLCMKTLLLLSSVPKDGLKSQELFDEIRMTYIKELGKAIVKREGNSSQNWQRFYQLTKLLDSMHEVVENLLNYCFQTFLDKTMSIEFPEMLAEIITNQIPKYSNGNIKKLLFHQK
- ASSAY_REMARKS: Trans-activation modulation of glucocorticoid receptor (GRAMMER), MMTV-LUC reporter in A549 cells
- Assay type: cell-based
- ASSAY_CONDITIONS: A549 cells; Emax relative to the activity obtained with 300 nM dexamethasone
OBSERVED_PROPERTY: Transactivation A549 Cells Grammer Emax (%)

Worked examples follow.
COMPOUND: CC[C@]12Cc3cnn(-c4ccc(F)cc4)c3C=C1CC[C@@]2(O)CC(O)c1ccc(F)cn1 (single isomer, unassigned) [Example 69b]
TARGET_UNDER_TEST: human GR (Homo sapiens)
UNIT_TAG: %
RESULT_VALUE: 26
//
COMPOUND: CC[C@]12Cc3cnn(-c4ccccc4)c3C=C1CC[C@@]2(O)CC(O)c1ccccn1 (single isomer, unassigned) [Example 82b]
TARGET_UNDER_TEST: human GR (Homo sapiens)
UNIT_TAG: %
RESULT_VALUE: 10

P = CC[C@]12Cc3cnn(-c4ccc(F)cc4)c3C=C1CC[C@@]2(O)CCc1ccccc1C(O)C(N)=O (stereo partly shown) [Example 26]
Q = CC[C@]12Cc3cnn(-c4ccc(F)cc4)c3C=C1CC[C@@]2(O)CCc1ccccc1C(O)C(N)=O (stereo partly shown) [Example 25]
Which entry shows the lesser value of Transactivation A549 Cells Grammer Emax (%) here, P or Q ? Record your answer as the label of the chosen record.
Q
(Q: 22%, P: 58%)

* * *

- TARGET_UNDER_TEST: human GR (Homo sapiens)
- Construct: naturally expresses the human GR; endogenous in cells
- ASSAY_REMARKS: Trans-activation modulation of glucocorticoid receptor (GRAMMER), MMTV-LUC reporter in A549 cells
- Assay type: cell-based
- ASSAY_CONDITIONS: A549, A549 cells; Emax relative to the activity obtained with 300 nM dexamethasone; read-out: Transactivation A549 Cells Grammer Emax (%)
- Description: Trans-Activation Modulation of Glucocorticoid Receptor (GRAMMER) […] The routine transient assay consists of plating 7,000-25,000 cells/well of a white, clear-bottom 96-well plate. […] The cells are trypsinized and counted to the right cell number in the proper amount of fresh media. […] Antagonist activity is calculated by determining the decrease in dexamethasone-induced activity in response to compound treatment relative to samples that were treated with dexamethasone alone. […]
OBSERVED_PROPERTY: Emax (%)

Worked examples follow.
COMPOUND: NC(=O)c1cc(F)ccc1CC[C@]1(O)CCC2=Cc3c(cnn3-c3ccc(F)cc3)C[C@@]21C1CC1 [Example 39]
UNIT_TAG: %
Emax: 14
--
COMPOUND: CS(=O)(=O)c1ccccc1CC[C@]1(O)CCC2=Cc3c(cnn3-c3ccc(F)cc3)C[C@@]21C1CC1 [Example 58]
UNIT_TAG: %
Emax: 11
--
COMPOUND: CC[C@]12Cc3cnn(-c4ccc(F)cc4)c3C=C1CC[C@@]2(O)CC(O)c1ccccn1 (stereo partly shown) [Example 68]
UNIT_TAG: %
Emax: 21

P = COc1cccc(CC[C@]2(O)CCC3=Cc4c(cnn4-c4ccc(F)cc4)C[C@@]32C2CC2)c1C(N)=O [Example 38]
Q = NC(=O)c1cccnc1CC[C@]1(O)CCC2=Cc3c(cnn3-c3ccc(F)cc3)C[C@@]21C1CC1 [Example 1]
Which entry shows the lesser value of Emax here, P or Q ? Record your answer as the label of the chosen record.
P
